Sourced from PubChem BioAssay (NCI)

- System: MCF7 breast
- TEST: NCI tumour cell line growth inhibition, 48 h
# key: entry, value: TGI

1) Cc1nc(Cc2n[nH]c(C)n2)n[nH]1 :: > 100 µM

Ask | For the molecule CC(=O)N1c2cc(N=NN(C)C)ccc2NC(=O)CC1C (configuration not stated) , what TGI is on record?
Reply | > 100 µM

Ask | Field request: TGI | item: c1cncc(C2ONC3=NCCN32)c1 (configuration not stated)
Reply | > 100 µM

Ask | Fill blank: measured TGI of the molecule C=CCNC1=C2C[C@@H](C)C[C@@H](OC)[C@H](OC(=O)CCN(C)C)[C@H](C)/C=C(\C)[C@@H](OC(N)=O)[C@H](OC)/C=C\C=C(/C)C(=O)NC(=CC1=O)C2=O is ____.
Reply | 14.9 µM

Ask | # TGI lookup, item CCCCCCCCCCCCC1N=C(N)NC2(CCCO2)C1C(=O)OC (configuration not stated)
Reply | 9.2 µM

Ask | Which TGI is listed for Clc1ccc(C2=NCON=C2c2ccc(Cl)cc2)cc1 ?
Reply | 85.6 µM

Ask | Any idea what its TGI is? The molecule is O=c1nc2[nH]c3c(-c4n[nH]c(=O)[nH]c4=O)cccc3c2n[nH]1
Reply | > 100 µM

Ask | Requested read-out: TGI. Entry: NC(N)=N/N=C/c1c(-c2ccncc2)nc2sc(Cl)cn12
Reply | > 94.2 µM

* * *

Item-by-item account of TGI
- System: DLD-1 colon
- TEST: NCI tumour cell line growth inhibition, 48 h

Known TGI results, listed for orientation:
1) O=c1cccccc1[O-].O=c1cccccc1[O-].O=c1cccccc1[O-].[Sm+3] :: > 100 µM
2) CC(=O)[O-].[Mn+3].[O-]c1ccc(Cl)cc1C=NCCN=Cc1cc(Cl)ccc1[O-] :: > 100 µM
3) CCCCCCCCCCCCCCCC(=O)OCC1OC(n2cc(F)c(=O)[nH]c2=O)C(NC(=O)N(CCCl)N=O)C(O)C1O (stereo unspecified) :: 12.5 µM
4) N#CC(NNC(=O)c1ccccc1O)c1c(O)ccc2ccccc12 (stereo unspecified) :: > 100 µM
5) O=C(O)/C=C/c1ccncc1 :: > 100 µM

Ask | Using the record for CCOc1ccccc1NC(=O)C1=C(C)NC(C)=C(C(=O)Nc2ccccc2OCC)C1c1ccc([N+](=O)[O-])cc1 , report its TGI.
Reply | > 100 µM

Ask | I'd like to know its TGI. The compound in question is CC1CC(C)C(C(O)CC2CC(=O)N(c3ccccc3)C(=O)C2)C(O)C1 (stereo unspecified)
Reply | > 100 µM

Ask | Would you kindly share the measured TGI for COC(=O)c1sc(=NC(=S)N2CCCCC2)sc1C(=O)OC ?
Reply | > 100 µM

Ask | Can you look up the measured TGI of COc1ccc(C(=O)O/N=C2/CCCCC2CN(C)C)cc1 (stereo unspecified) for me?
Reply | > 100 µM

Ask | Quick check: TGI of CN(C)c1ccc(O[Si](Oc2ccc(N(C)C)cc2)(Oc2ccc(N(C)C)cc2)Oc2ccc(N(C)C)cc2)cc1 ?
Reply | > 100 µM

Ask | Fill in the blank: the reported TGI of Nc1nc(=S)c2[nH]cnc2[nH]1 is ____.
Reply | 202 µM

* * *

We begin with a simple list: items and their reported TGI.
- Test system: KM20L2 colon
- TEST: NCI tumour cell line growth inhibition, 48 h

1) O=C(c1ccccc1)c1cc(Cl)ccc1NCn1nnc2ccccc21 :: > 100 µM

Ask | For the compound COC(=O)C(NC(=O)c1ccccc1)C(c1c(O)cc(O)cc1O)P(=O)(OC)OC (centres undefined) , what TGI is on record?
Reply | > 100 µM

Ask | // TGI lookup, key: CC(C)=CC(=O)c1c(C(=O)O)nc2ccccc2[n+]1[O-]
Reply | > 100 µM

Ask | For the compound shown here, c1cncc([O][Ge]([O]c2cccnc2)([O]c2cccnc2)[O]c2cccnc2)c1 , give the reported TGI.
Reply | > 100 µM

Ask | Looking for the measured TGI of O=CC1=CCC2c3[nH]c4ccccc4c3CCN2C1 (centres undefined) , can you help?
Reply | > 396 µM

Ask | Need TGI of CC1(Cl)CC(C)(/C=C/Cl)C(Cl)CC1Cl (centres undefined) , thanks.
Reply | 31.6 µM

Ask | Look up TGI for this compound: N#CC(NNC(=O)c1ccccc1O)c1c(O)ccc2ccccc12 (centres undefined)
Reply | 68 µM

Ask | Could you share which TGI value was measured for O=c1cccccc1[O-].O=c1cccccc1[O-].O=c1cccccc1[O-].[Sm+3] ?
Reply | > 100 µM

Ask | Reported TGI, compound O=C(/C=C(\[O-])c1ccccc1)CCCCCCC(=O)/C=C(\[O-])c1ccccc1.O=C(/C=C(\[O-])c1ccccc1)CCCCCCC(=O)/C=C(\[O-])c1ccccc1.O=C(/C=C(\[O-])c1ccccc1)CCCCCCC(=O)/C=C(\[O-])c1ccccc1.[Nd+3].[Nd+3] : ____
Reply | > 50 µM

Ask | Endpoint output: TGI of CCOc1ccccc1NC(=O)C1=C(C)NC(C)=C(C(=O)Nc2ccccc2OCC)C1c1ccc([N+](=O)[O-])cc1 . Value?
Reply | > 100 µM

Ask | Field request: TGI | item: COC(=O)c1sc(=NC(=S)N2CCCCC2)sc1C(=O)OC
Reply | > 100 µM

Ask | Which TGI value belongs to COCC1N=C(c2cc(OC)c(OC)c(OC)c2-c2cc3c(cc2[C@H](C)O)OCO3)O[C@H]1c1ccccc1 (some centres undefined) ?
Reply | > 100 µM

Ask | Fill in the blank: the reported TGI of [Cl-].[Gd+3].[O-]/N=C(\c1ccccc1)c1ccccn1.[O-]/N=C(\c1ccccc1)c1ccccn1.[O-]/N=C(\c1ccccc1)c1ccccn1 is ____.
Reply | > 100 µM

Ask | Which TGI value belongs to CC(=O)OCC1OC(n2c(=S)n(-c3ccccc3)c(=O)c3cc(Br)cc(Br)c32)C(OC(C)=O)C(OC(C)=O)C1OC(C)=O (centres undefined) ?
Reply | > 100 µM

* * *

- System: HT29 colon
- TEST: NCI tumour cell line growth inhibition, 48 h
Where a SMILES comes first, the peptide text is derived from it. The star is where a group is joined. Cbz = O=C(OCc1ccccc1)*; Boc = CC(C)(C)OC(=O)*; OSu = O=C1CCC(=O)N1O*; Bn = c1ccc(C*)cc1
The entries below are paired with their reported TGI.

1) CC1CCCN1CCCOC(=O)c1ccc(OC2C=CCCC2)cc1 (centres undefined) :: 60.4 µM
2) CC(C)(C)OC(=O)NC(Cc1ccc(OCc2ccccc2)cc1)C(=O)NC(CCCCNC(=O)OCc1ccccc1)C(=O)NC(CCCCNC(=O)OCc1ccccc1)C(=O)ON1C(=O)CCC1=O (centres undefined) (Boc-Tyr(Bn)-Lys(Cbz)-Lys(Cbz)-OSu; configuration not given here) :: > 100 µM
3) C=CCN=C(N/N=C/c1ccc([N+](=O)[O-])o1)NS(=O)(=O)c1cc(C(=O)Nc2ccccc2)c(Cl)cc1SCC(N)=O :: > 100 µM

We next turn to a different compound, shown below.
Ask | Can you look up the measured TGI of CCOC(=O)C1CCC(=O)N1C(=O)c1ccc(Cl)cc1 (centres undefined) for me?
Reply | > 100 µM

* * *

- System: HS 578T breast
- TEST: NCI tumour cell line growth inhibition, 48 h
Below is a list of entries, each paired with its recorded TGI value.

Known results for molecules:
1. C=CCN=C(N/N=C/c1ccc([N+](=O)[O-])o1)NS(=O)(=O)c1cc(C(=O)Nc2ccccc2)c(Cl)cc1SCC(N)=O :: 66.3 µM
2. N#CC(NNC(=O)c1ccccc1O)c1c(O)ccc2ccccc12 (stereo not given) :: > 86.2 µM
3. Oc1ccccc1C=Nc1nc(OCc2ccccc2)nc2[nH]ncc12 :: 56.9 µM

Ask | Return reported TGI; argument: C=C1CC/C=C(\C)CC[C@H](C(=C)C)[C@@H](O)/C=C(/CO)CCC1O (stereo not given in full)
Reply | > 100 µM

Ask | // TGI lookup, key: Cc1nc2c(Br)cc(Br)cc2c(=O)n1-c1ccccc1NC1OCC(O)C(O)C1O (stereo not given)
Reply | > 100 µM

Ask | Value lookup for TGI; key = CNCc1ccc(-c2[nH]c3cc(F)cc4c3c2CCNC4=O)cc1
Reply | 67.9 µM

Ask | If you can, please state the reported TGI value of NC(Cc1ccccc1CP(=O)(O)O)C(=O)O (stereo not given) .
Reply | > 100 µM

Ask | Form field: reported TGI of c1ccc(-c2c(-c3[nH]c4ccccc4c3-c3ccccc3)[nH]c3ccccc23)cc1
Reply | 51.6 µM

Ask | Consider the molecule shown here: CC(=O)N[C@@H](Cc1ccc(O)cn1)C(=O)NC1CCCCC1 What is its recorded TGI?
Reply | > 100 µM

Ask | Fill blank: measured TGI of the molecule CCOC(=O)c1cn(CC)c2ccc3c(c2c1=O)S(=O)(=O)C=C3 is ____.
Reply | > 100 µM

Ask | Tell me the measured TGI of C=CCOC(=O)N1c2ccc(O)cc2[C@@]23O[C@@]24[C@@H]1C#C/C=C\C#C[C@]3(O)C(=O)C[C@@H]4C , please.
Reply | > 100 µM

Ask | Please give the measured TGI for this molecule: CCCCCCCc1ccc(-c2nnc(N=Nc3ccc(OCCCCC)cc3)s2)s1
Reply | > 100 µM

Ask | Recorded TGI for COc1ccc(/C(C)=C(\c2ccc(Cl)cc2)c2ccc(OCCN3CCCCCC3)cc2)cc1F , please?
Reply | 6.51 µM

Ask | Recorded TGI for CC[C@@]12CCC(=S)N(CCSc3ccccc3)[C@@H]1c1c(n(S(=O)(=O)c3ccc(OC)cc3)c3ccccc13)CC2 , please?
Reply | > 100 µM

Ask | May I ask what TGI has been recorded for CC(NNC(=O)c1ccncc1)c1ccc(Cl)cc1Cl (stereo not given) ?
Reply | > 100 µM

Ask | What TGI value was documented for this molecule, Cc1ccccc1Nc1nc2ccccc2nc1NS(=O)(=O)c1ccccc1 ?
Reply | > 100 µM

Ask | Reported TGI, molecule COc1ccc(Cc2nc3cc(OC)c(OC)cc3c(=O)[nH]2)cc1 : ____
Reply | 99.2 µM

Ask | Which TGI value belongs to CCc1cc2c(c3c1CCCC3=O)CC1(C2)Cc2cc(CC)c3c(c2C1)C(=O)CCC3 ?
Reply | > 100 µM

Ask | Entry CCOC(=O)C1C(c2ccc(OC)cc2)c2c([nH]n(-c3ccccc3)c2=O)CC1(C)O (stereo not given) has what TGI?
Reply | > 100 µM

Ask | Suppose we examine the molecule O=C(Nc1ccc(C(F)(F)F)cc1[N+](=O)[O-])c1cccnc1 ; what TGI value has been reported?
Reply | > 100 µM
